Values from the Human Domainome abundance scans (Beltran et al. 2025)

B1: POU domain, class 3, transcription factor 4, residues 280 to 335; numbered along this chain, P49335 (parent)
chain: KKRTSIEVSVKGVLETHFLKCPKPAAQEISSLADSLQLEKEVVRVWFCNRRQKEKR

Variants of: B1
Assay: abundance fitness (aPCA) (normalised: wild type 0, dead -1); higher = more abundant; growth selection in yeast, the domain comes from the species named
Settings: Homo sapiens
endpoint_name: abundance fitness
Just the number.

The following variants have reported results that may help.
{"columns": ["mutation_notation", "quantitative_readout"],
 "data": [
  ["T4F", -0.26],
  ["G12L", 0.004],
  ["E28Q", -0.432]
]}

# evaluate next
Would you mind telling me what abundance fitness value was observed for K23G ?
-0.664
